Heads up, these compounds all have log10(IC50) values measured for Vascular endothelial growth factor receptor 2 (Homo sapiens, UniProt P35968).
Note the log scale: values are log10 of IC50 expressed in µM.

Here are 5 compounds together with their reported answers.
[[record]]
compound_string = "CN1CCN(c2ccc(-c3cnn4c(N)c(-c5ccc(NC(=O)CCC6CCCC6)cc5)cnc34)cc2)CC1"
measure = "log10(IC50)"
measured_value = 0.01

[[record]]
compound_string = "CC(C)COC(=O)Nc1ccc(-c2cnc3c(-c4cccc(N5CCN(C)CC5)c4)cnn3c2N)cc1"
measure = "log10(IC50)"
measured_value = 0.73

[[record]]
compound_string = "CN1CCN(c2ccc(-c3cnn4c(N)c(-c5ccc(NC(=O)Oc6ccccc6)cc5)cnc34)cc2)CC1"
measure = "log10(IC50)"
measured_value = 0.00

[[record]]
compound_string = "CC(C)COC(=O)Nc1ccc(-c2cnc3c(-c4cccc(N5CCOCC5)c4)cnn3c2N)cc1"
measure = "log10(IC50)"
measured_value = 0.87

[[record]]
compound_string = "CN1CCN(c2cccc(-c3cnn4c(N)c(-c5ccc(NC(=O)CCC6CCCC6)cc5)cnc34)c2)CC1"
measure = "log10(IC50)"
measured_value = -0.16


State recorded log10(IC50) for all listed compounds.
1. CN1CCN(c2cccc(-c3cnn4c(N)c(-c5ccc(NC(=O)Oc6ccccc6)cc5)cnc34)c2)CC1
2. CN1CCN(c2cccc(-c3cnn4c(N)c(-c5ccc(NC(=O)c6ccc(C(F)(F)F)cc6)cc5)cnc34)c2)CC1
3. CN1CCN(c2ccc(-c3cnn4c(N)c(-c5ccc(O)cc5)cnc34)cc2)CC1
4. CN1CCN(c2ccc(-c3cnn4c(N)c(-c5ccc(NC(=O)c6ccc(C(F)(F)F)cc6)cc5)cnc34)cc2)CC1

Output:
1. 0.61
2. 0.36
3. 0.11
4. 0.92

Need log10(IC50) for each of these compounds.
1. CN1CCN(c2cccc(-c3cnn4c(N)c(-c5ccc(NC(=O)N(C)C6CCCCC6)cc5)cnc34)c2)CC1
2. CC(C)COC(=O)Nc1ccc(-c2cnc3c(-c4cccc(N5CCNCC5)c4)cnn3c2N)cc1

Output:
1. 0.78
2. 0.32
